Below: molecules with pIC50 recorded for IRAK4 (Homo sapiens (Human)) in separate published works.
pIC50: −log10 of the molar value.

pIC50 for "Cc1cc(Nc2nc(NC(C)C)c3c(ccn3-c3cnn(C4CCOCC4)c3)n2)sn1" ?
6.00 to 7.00

Name the recorded pIC50 for "Cc1cc(Nc2nc(N[C@H]3CC[C@@H](N(C)C)CC3)c3sccc3n2)sn1" .
6.00 to 7.00

Return reported pIC50; argument: "C[C@]1(O)CC[C@H](Nc2nc(Nc3cc(C(=O)N[C@@H]4CCNC4)cs3)nc3ccsc23)CC1"
≥ 7.00

Look up pIC50: COc1cc2nc(C3COCCO3)cn2cc1NC(=O)c1cccn(C)c1=O (stereo not shown)
7.30 to 8.00

---

// molecules with pIC50 on UniProt Q9NWZ3, multi-source literature
Bear in mind: pIC50 is minus log10 of a mol/L concentration; give just that figure.

Here is how some molecules turned out for pIC50.
Cc1nc2cc(Cn3cc(-c4cnc(-n5ncc6cc(C#N)cnc65)cc4NC(C)C)nn3)ccc2s1	6.49
O=C(Nc1cc2cn(C3CCOCC3)nc2cc1Cl)c1cccc(C(F)(F)F)n1	7.33
CC(C)Oc1cc2nc([C@@]34CC[C@@](CF)(C3)OC4)cn2cc1C(=O)Nc1cccn(C2CC2)c1=O (single isomer, unassigned)	9.52

State its pIC50 on UniProt Q9NWZ3: "CNc1ncc(-c2ccc3ncnc(N[C@H]4CC[C@H](N(C)C)CC4)c3c2)cn1"
7.55

What value of pIC50 on UniProt Q9NWZ3 does "CC(=O)N1CCC(N2CC(n3cc(NC(=O)c4cccc(-c5cnn(C6(CO)CCC6)c5)n4)c(C(F)F)n3)C2)CC1" have?
8.49

---

We begin with pIC50 values for IRAK4 (Homo sapiens (Human)), as collected from the published literature.
pIC50: −log10 of the molar value.

# count of solved cases: 3
O=C(CCCc1cn(-c2ccccc2)c(NC(=O)c2cccc(-c3cn[nH]c3)c2)n1)Nc1ccc(F)cc1F	> 7.30
Cn1cc(-c2cccc(-c3ncc(-c4cnn(C)c4)c(N[C@@H]4CC[C@H](N)C4)n3)c2)cn1 (racemic)	> 7.00
CN(CCOc1ccc2c(c1)C(=O)N(C1CCC(=O)NC1=O)C2=O)c1cccc(-n2c(NC(=O)c3cccc(C(F)(F)F)c3)nc3cc(F)ccc32)c1 (stereo not shown)	≤ 6.00

We now examine a further molecule.
Which measured pIC50 belongs to "NC(=O)Cc1ccc2sc3ncnc(N[C@H]4CC[C@H](N5CCOCC5)CC4)c3c2c1" , tested on IRAK4 (Homo sapiens (Human))?
5.00 to 6.00

---

pIC50: −log10 of the molar value.
Please find below pIC50 measurements for IRAK4 (Homo sapiens (Human)), combined from several publications.

Please review the following examples before continuing.
COc1cc2nc(C3CCS(=O)(=O)CC3)cn2cc1NC(=O)c1cccn(C2CC2)c1=O	8.30 to 10.00
CNC(=O)c1cc(-c2cccc(C(C)N)n2)cc2c1cnn2-c1cccc(CO)n1 (centres unmarked)	> 7.00
Cn1cc(-c2cccc(C(=O)Nc3nc(CCCC(=O)N4CCCC[C@@H]4CCO)cn3-c3ccccc3)c2)cn1	> 7.30
Cc1cc(Nc2nc(OC3CCN(C)CC3)c3c(ccn3-c3cnn(C)c3)n2)sn1	6.00 to 7.00
O=c1[nH]nc(-c2ccc3[nH]c4ncnc(N[C@H]5CC[C@H](N6CCOCC6)CC5)c4c3c2)[nH]1	6.29
CO[C@@H]1[C@H](O)[C@@H](C(C)(C)O)C[C@H]1Nc1nc(Nc2cc(C)nc(C)c2)ncc1-c1nc2ccccc2s1	8.66
CC(C)Nc1cc(-c2cnc3cc(C#N)cnn23)ncc1C(=O)NCC(F)(F)C(C)(C)O	8.22
COCCOc1cc(-c2cccc([C@@H](N)CCCO)n2)cc2c1cnn2-c1cccc(CO)n1	> 7.00

What measured pIC50 goes with O=C1CCC(N2C(=O)c3ccc(OCCOCCOCCOCCN4CCN(Cc5ccc6c(c5)nc(NC(=O)c5cccc(C(F)(F)F)c5)n6[C@H]5CC[C@@H](CO)CC5)CC4)cc3C2=O)C(=O)N1 (some centres unmarked) ?
> 7.52

What value of pIC50 has been recorded for this entry: CN(C)C1CCC(Nc2ncnc3ccc(-c4ccc(N)nc4)cc23)CC1 (centres unmarked)
7.44

Entry under review: Cn1cc(-c2cccc(-c3ncc(-c4cnn(C)c4)c(NC4CC5(C4)CC(NS(C)(=O)=O)C5)n3)c2)cn1 (centres unmarked) . Reported pIC50?
> 7.00

---

Please find below IC50 measurements for UniProt:Q9NWZ3, combined from several publications.

CCC[C@H](N)c1cccc(-c2cc(N3CCCCC3)c3cnn(-c4cccc(CO)n4)c3c2)n1	< 100 nM
CC(C)(O)[C@H](F)CNC(=O)c1cnc(-c2cnc3cc(Cl)cnn23)cc1NC1CC(F)(F)C1	4 nM
O=C(CCCCCc1cn(-c2ccccc2)c(NC(=O)c2cccc(-c3ccc4[nH]ncc4c3)c2)n1)NC1CC1	< 50 nM
CS(=O)(=O)c1cccc(-c2cnc3[nH]cc(C(O)c4c(F)ccc(F)c4F)c3c2)c1 (stereo not shown)	≤ 10000 nM

Which IC50 is reported with UniProt:Q9NWZ3 for this entry: "CC(C)(O)CCc1cn(-c2cnc(-n3ncc4cc(C#N)cnc43)cc2N[C@H]2CC[C@@H](F)C2)nn1" ?
4 nM

Tell me reported IC50 for "CC(C)Nc1cc(-n2ncc3cc(C#N)cnc32)ncc1-c1cn(CC2CCC2)cn1" , tested with UniProt:Q9NWZ3.
4 nM

For the record "c1nc2c(N[C@H]3CC[C@H](N4CCOCC4)CC3)nc(Nc3cnn(CC4CCOCC4)c3)nc2s1" , what value of IC50 is listed for UniProt:Q9NWZ3?
≤ 1000 nM

---

From various publications: pIC50 for IRAK4 (Homo sapiens (Human)).
pIC50: −log10 of the molar value.

Recorded results for 5 compounds are shown here.
COc1cc2nn(C3CCN(CC4CCN(CCOc5ccc6c(c5)C(=O)N(C5CCC(=O)NC5=O)C6=O)CC4)CC3)cc2cc1NC(=O)c1cccc(C(F)(F)F)n1 (centres unmarked)	> 7.52
CC(C)(C#N)Nc1cc(-c2ccc3cc(C#N)cnn23)ncc1C(=O)NC[C@@H](F)C(C)(C)O	> 9.00
Cc1cccc(-n2ncc3ccc(-c4cccc(C5(C#N)CCC5)n4)cc32)n1	> 7.00
Cc1cc(Nc2nc(OC3CCOCC3)c3c(ccn3-c3ccsc3)n2)sn1	6.00 to 7.00
CC(C)(O)[C@H](F)Cn1cc(-c2cnc(-c3ccc4cc(C#N)cnn34)cc2NC23CCC(O)(CC2)CC3)nn1	> 9.00

Notebook entry, IRAK4 (Homo sapiens (Human)) assay: pIC50 of "C[C@H](N)c1cccc(-c2cc(-c3ncc(F)cn3)c3cnn(-c4cccc(CO)n4)c3c2)n1" = ?
> 7.00

// lookup pIC50 | system=IRAK4 (Homo sapiens (Human)) | key= "Cc1nnc(-c2cnc(-c3cccc(-c4cnn(C)c4)c3)nc2NC2CCS(=O)(=O)CC2)s1"
> 7.00

Could you share what pIC50 was measured for "Cc1cc(Nc2nc(O[C@H]3CC[C@H](N(C)C)CC3)c3sccc3n2)sn1" , tested on IRAK4 (Homo sapiens (Human))?
≥ 7.00

---

Several reports have described IC50 for IRAK4 (Homo sapiens (Human)); a selection of those results is presented here.

Some solved cases for reference:
Cn1cc(-c2cccc(-c3ncc(-c4cnn(C)c4)c(NC4CC(F)C4)n3)c2)cn1 (stereo not drawn)	100 to 1000 nM
N#Cc1cccc(-n2ncc3ccc(-c4cccc(N)c4)cc32)n1	< 100 nM

Please look at the following compound next.
So what does the record say about IC50 for "O=C(Nc1cn2cc(C3CCOCC3)nc2cc1C(=O)NCC(F)F)c1cccc(C(F)(F)F)n1" ?
5 to 10 nM

---

pIC50: −log10 of the molar value.
Collected from the literature: pIC50 of various compounds toward UniProtKB Q9NWZ3.

Consider the reported pIC50 for these compounds:
CN1CCN(NC(=O)CCCc2cn(-c3ccccc3)c(NC(=O)c3cccc(-c4cnn(C)c4)c3)n2)CC1	7.00 to 7.30
O=C(Nc1nc(CCCCCCN2CCCCC2)cn1-c1ccccc1)c1cccc(-c2ccc3[nH]ccc3c2)c1	7.00 to 7.30
Cc1cc(Nc2nc(O[C@H]3CCOC3)c3c(ccn3-c3cnn(C)c3)n2)[nH]n1	6.00 to 7.00

Next compound, please.
Short answer please: pIC50, UniProtKB Q9NWZ3, entry N#Cc1ccc2ncnc(N[C@H]3CC[C@H](N4CCN(S(=O)(=O)CCOCCOCCOCCOc5ccc6c(c5)C(=O)N(C5CCC(=O)NC5=O)C6=O)CC4)CC3)c2c1 (stereo partly shown)
≤ 6.00

---

pIC50: −log10 of the molar value.
Listing of pIC50 toward IRAK4 (Homo sapiens (Human)), each taken from a published source.

Worked examples, 5 molecules total:
CC(N)c1cccc(-c2ccc3cnn(-c4cccc(C(F)(F)F)n4)c3c2)n1 (single isomer, unassigned; isomer a)	> 7.00
Cn1cc(-c2cccc(-c3ncc(-c4cnn(C)c4)c(NCCC4CCCCN4)n3)c2)cn1 (stereo not shown)	5.30 to 6.00
CC(C)Nc1cc(-c2ccc3cc(C#N)cnn23)ncc1-c1cn(C2CCN(C(=O)OC(C)(C)C)CC2)nn1	8.15
CS(=O)(=O)N1CCc2sc3ncnc(O[C@H]4CC[C@H](N5CCOCC5)CC4)c3c2C1	> 5.30
N[C@@H](CCCO)c1cccc(-c2ccc3cnn(-c4cccc(CO)n4)c3c2)n1	> 7.00

Data request, read-out pIC50, for "O[C@H]1CC[C@H](Nc2nc(Nc3cnn(C4CCCC4)c3)nc3ccsc23)CC1"
6.00 to 7.00

Given "CC(C)Nc1cc(-n2ncc3cc(C#N)cnc32)ncc1-n1cc(C2CCN(CC(F)F)CC2)nn1" , state its recorded pIC50.
8.15
